Origin of the recorded values: patent US7745476B2

Can you tell me melting point for the items I'm about to list?

(Q) If you can, please state the reported melting point value of O=C(NN1CCCCC1)C1=NN(c2ccc(Cl)cc2)C(c2ccccc2)C1 (stereo not drawn) .
(A) 189 to 192 °C

(Q) If you can, please state the reported melting point value of N/C(=N\S(=O)(=O)c1ccc(F)cc1)C1=NN(c2ccc(Cl)cc2Cl)C(c2ccccc2)C1 (stereo not drawn) .
(A) 167 to 169.5 °C

(Q) If you can, please state the reported melting point value of CN/C(=N\S(=O)(=O)N1CCOCC1)C1=NN(c2ccc(Cl)cc2Cl)C(c2ccccc2)C1 (stereo not drawn) .
(A) 161 to 165 °C

(Q) If you can, please state the reported melting point value of O=C(NC1CCCCC1)C1=NN(c2ccc(Cl)cc2Cl)C(c2ccccc2)C1 (stereo not drawn) .
(A) 160 to 163.5 °C

(Q) If you can, please state the reported melting point value of O=C(NN1CCCCC1)C1=NN(c2ccc(Cl)cc2Cl)C(c2ccccc2)C1 (stereo not drawn) .
(A) 163 to 165 °C

(Q) If you can, please state the reported melting point value of N/C(=N\S(=O)(=O)c1ccc(F)cc1)C1=NN(c2ccc(Cl)cc2)C(c2ccccc2)C1 (stereo not drawn) .
(A) 200 to 203.5 °C
